# PROCEDURE_TEXT: Primary qHTS for delayed death inhibitors of the malarial parasite plastid, 96 hour incubation
# DETAILS: P. falciparum luciferase reporter growth; series mostly up to 28.7 µM
Out of some 320,000 compounds screened, about 22,000 (6.9%) were called active. Inconclusive results (about 27%) are left out. Calls follow the shape of the dose curve; as a rule, active = well fitted inhibition curve with a large enough effect; inconclusive = small, poorly fitted or top-dose-only effect, or another doubt; inactive = no such curve, though single readings can be large or run the other way. The entries come from a sample that favours actives as a whole.
Select the correct class. Options are active, inactive and nothing else.

Examples from the recorded data:
molecule=COc1cc(OC)cc(-c2nc3nc(C)c(CCC(=O)NCc4ccco4)c(C)n3n2)c1 class=inactive
molecule=O=C(Nc1ccccc1)N1CCC(C(=O)N2CCN(Cc3ccccc3)CC2)CC1 class=inactive
molecule="Cc1c(C(C)CCCO)oc(=O)c2c1Oc1c(C)c(C(C)C[C@@H](C)O)oc(=O)c1C2 (stereo not given in full)" class=inactive
molecule=CCN(CC)S(=O)(=O)c1ccc(N2CCN(C)CC2)c(NC(=O)Nc2ccccc2F)c1 class=active
molecule=CCN(CC)S(=O)(=O)c1cc(C(=O)Nc2cc(S(=O)(=O)N3CCOCC3)ccc2N2CCCC2)ccc1F class=active

Q. How did this test come out for `CCN(CC)S(=O)(=O)c1ccc(N2CCOCC2)c(C(=O)O)c1` ?
A. inactive
